- Assay Method Text: Acyl group migration (rearrangement) of pro-drug in DMSO-d6/buffer solution monitored by 19F-NMR
- Assay type: physicochemical
- Reported Conditions: pH 7, 40° C., time 24 hr
Collected HEA product (% present) values appear next to each entry.
Metric: HEA product (% present) (%)

INSERT INTO measurements (compound_structure_string, unit_label, assay_value) VALUES
  ('CCCN(CCC)C(=O)c1cc(C(=O)O[C@H](CNCc2cccc(CC)c2)[C@@H](N)Cc2cc(F)cc(F)c2)cc(-c2ncco2)c1.Cl.Cl', '%', 62),
  ('CCCN(CCC)C(=O)c1cc(C(=O)O[C@H](CNCc2cccc(C(F)(F)F)c2)[C@@H](N)Cc2cc(F)cc(F)c2)cc(-c2ncco2)c1.Cl.Cl', '%', 57),
  ('CCCN(CCC)C(=O)c1cc(C(=O)N(Cc2cccc(CC)c2)C[C@@H](O)[C@@H](N)Cc2cc(F)cc(F)c2)cc(-c2ncco2)c1.Cl', '%', 40),
  ('CCCN(CCC)C(=O)c1cc(C(=O)N(Cc2cccc(C(F)(F)F)c2)C[C@@H](O)[C@@H](N)Cc2cc(F)cc(F)c2)cc(-c2ncco2)c1.Cl', '%', 51);

---

- Assay Method Text: Acyl group migration (rearrangement) of pro-drug in DMSO-d6/buffer solution monitored by 19F-NMR
- Format: physicochemical
- Reported Conditions: pH 4, 40° C., time 48 hr
Collected N-acyl prodrug (% present) values appear next to each entry.
Metric: N-acyl prodrug (% present) (%)

INSERT INTO assay_data (compound_structure_string, assay_value) VALUES
  ('CCCN(CCC)C(=O)c1cc(C(=O)N(Cc2cccc(C(F)(F)F)c2)C[C@@H](O)[C@@H](N)Cc2cc(F)cc(F)c2)cc(-c2ncco2)c1.Cl', 92),
  ('CCCN(CCC)C(=O)c1cc(C(=O)O[C@H](CNCc2cccc(CC)c2)[C@@H](N)Cc2cc(F)cc(F)c2)cc(-c2ncco2)c1.Cl.Cl', 12),
  ('C#Cc1cccc(C2(NC[C@@H](OC(=O)c3cc(C(=O)N(CCC)CCC)cc(-c4ncco4)c3)[C@@H](N)Cc3cc(F)cc(F)c3)CC2)c1', 0),
  ('CCCN(CCC)C(=O)c1cc(C(=O)N(Cc2cccc(CC)c2)C[C@@H](O)[C@@H](N)Cc2cc(F)cc(F)c2)cc(-c2ncco2)c1.Cl', 95);

---

- Assay Method Text: Acyl group migration (rearrangement) of pro-drug in DMSO-d6/buffer solution monitored by 19F-NMR
- Type: physicochemical
- Reported Conditions: pH 4, 40° C., time 3 hr
Metric: HEA product (% present) (%)

INSERT INTO assay_data (compound, assay_value) VALUES
  ('CCCN(CCC)C(=O)c1cc(C(=O)O[C@H](CNCc2cccc(CC)c2)[C@@H](N)Cc2cc(F)cc(F)c2)cc(-c2ncco2)c1.Cl.Cl [Preparation 16]', 76),
  ('CCCN(CCC)C(=O)c1cc(C(=O)N(Cc2cccc(C(F)(F)F)c2)C[C@@H](O)[C@@H](N)Cc2cc(F)cc(F)c2)cc(-c2ncco2)c1.Cl [Preparation 20]', 4),
  ('C#Cc1cccc(C2(NC[C@@H](OC(=O)c3cc(C(=O)N(CCC)CCC)cc(-c4ncco4)c3)[C@@H](N)Cc3cc(F)cc(F)c3)CC2)c1 [Preparation 22]', 27);

---

Collected N-acyl prodrug (% present) values appear next to each entry.
- Assay Method Text: Acyl group migration (rearrangement) of pro-drug in DMSO-d6/buffer solution monitored by 19F-NMR
- Type: physicochemical
- Reported Conditions: pH 4, 40° C., time 0 hr
Metric: N-acyl prodrug (% present) (%)

INSERT INTO measurements (compound, metric, unit_label, assay_value) VALUES
  ('CCCN(CCC)C(=O)c1cc(C(=O)O[C@H](CNCc2cccc(CC)c2)[C@@H](N)Cc2cc(F)cc(F)c2)cc(-c2ncco2)c1.Cl.Cl [Preparation 16]', 'N-acyl prodrug (% present)', '%', 0),
  ('CCCN(CCC)C(=O)c1cc(C(=O)O[C@H](CNCc2cccc(C(F)(F)F)c2)[C@@H](N)Cc2cc(F)cc(F)c2)cc(-c2ncco2)c1.Cl.Cl [Preparation 18]', 'N-acyl prodrug (% present)', '%', 0),
  ('CCCN(CCC)C(=O)c1cc(C(=O)N(Cc2cccc(CC)c2)C[C@@H](O)[C@@H](N)Cc2cc(F)cc(F)c2)cc(-c2ncco2)c1.Cl [Preparation 19]', 'N-acyl prodrug (% present)', '%', 100),
  ('C#Cc1cccc(C2(NC[C@@H](OC(=O)c3cc(C(=O)N(CCC)CCC)cc(-c4ncco4)c3)[C@@H](N)Cc3cc(F)cc(F)c3)CC2)c1 [Preparation 22]', 'N-acyl prodrug (% present)', '%', 0),
  ('CCCN(CCC)C(=O)c1cc(C(=O)O[C@H](CNC2(c3cccc(CC)c3)CC2)[C@@H](N)Cc2cc(F)cc(F)c2)cc(-c2ncco2)c1.Cl.Cl [Preparation 17]', 'N-acyl prodrug (% present)', '%', 0),
  ('CCCN(CCC)C(=O)c1cc(C(=O)N(Cc2cccc(C(F)(F)F)c2)C[C@@H](O)[C@@H](N)Cc2cc(F)cc(F)c2)cc(-c2ncco2)c1.Cl [Preparation 20]', 'N-acyl prodrug (% present)', '%', 100);

---

- Assay Method Text: Acyl group migration (rearrangement) of pro-drug in DMSO-d6/buffer solution monitored by 19F-NMR
- Assay type: physicochemical
- Reported Conditions: pH 4, 40° C., time 24 hr
- Protocol: A compound of formula (I) OR (X) (5 mg) is dissolved in DMSO-d6 (500 μL) and either pH 4 buffer solution (500 μL, potassium hydrogen phthalate buffer) or pH 7 buffer solution (500 μL, sodium and potassium phosphate buffer) is added. […] The O-acyl or N-acyl to N-terminal N-acyl migration is monitored by observing the change in chemical shift for the aromatic fluorines using ^19F-NMR. […] The sample is analyzed by ^19F-NMR at approxiamately 0, 1.5, 3, 24, 48, and 144 hours. […]
Metric: HEA product (% present) (%)

INSERT INTO measurements (compound_structure_string, metric, unit_label, assay_value) VALUES
  ('CCCN(CCC)C(=O)c1cc(C(=O)O[C@H](CNC2(c3cccc(CC)c3)CC2)[C@@H](N)Cc2cc(F)cc(F)c2)cc(-c2ncco2)c1.Cl.Cl', 'HEA product (% present)', '%', 100),
  ('C#Cc1cccc(C2(NC[C@@H](OC(=O)c3cc(C(=O)N(CCC)CCC)cc(-c4ncco4)c3)[C@@H](N)Cc3cc(F)cc(F)c3)CC2)c1', 'HEA product (% present)', '%', 78),
  ('CCCN(CCC)C(=O)c1cc(C(=O)N(Cc2cccc(C(F)(F)F)c2)C[C@@H](O)[C@@H](N)Cc2cc(F)cc(F)c2)cc(-c2ncco2)c1.Cl', 'HEA product (% present)', '%', 7),
  ('CCCN(CCC)C(=O)c1cc(C(=O)N(Cc2cccc(CC)c2)C[C@@H](O)[C@@H](N)Cc2cc(F)cc(F)c2)cc(-c2ncco2)c1.Cl', 'HEA product (% present)', '%', 3),
  ('CCCN(CCC)C(=O)c1cc(C(=O)O[C@H](CNCc2cccc(CC)c2)[C@@H](N)Cc2cc(F)cc(F)c2)cc(-c2ncco2)c1.Cl.Cl', 'HEA product (% present)', '%', 88);

---

- Assay Method Text: Acyl group migration (rearrangement) of pro-drug in DMSO-d6/buffer solution monitored by 19F-NMR
- Assay type: physicochemical
- Reported Conditions: pH 4, 40° C., time 3 hr
Please use y whenever O-acyl pro-drug (% present) is not below 8%, and n whenever it is.

INSERT INTO assay_data (compound_structure_string, group_label) VALUES
  ('C#Cc1cccc(C2(NC[C@@H](OC(=O)c3cc(C(=O)N(CCC)CCC)cc(-c4ncco4)c3)[C@@H](N)Cc3cc(F)cc(F)c3)CC2)c1', 'y'),
  ('CCCN(CCC)C(=O)c1cc(C(=O)N(Cc2cccc(C(F)(F)F)c2)C[C@@H](O)[C@@H](N)Cc2cc(F)cc(F)c2)cc(-c2ncco2)c1.Cl', 'n'),
  ('CCCN(CCC)C(=O)c1cc(C(=O)N(Cc2cccc(CC)c2)C[C@@H](O)[C@@H](N)Cc2cc(F)cc(F)c2)cc(-c2ncco2)c1.Cl', 'n'),
  ('CCCN(CCC)C(=O)c1cc(C(=O)O[C@H](CNC2(c3cccc(CC)c3)CC2)[C@@H](N)Cc2cc(F)cc(F)c2)cc(-c2ncco2)c1.Cl.Cl', 'y'),
  ('CCCN(CCC)C(=O)c1cc(C(=O)O[C@H](CNCc2cccc(CC)c2)[C@@H](N)Cc2cc(F)cc(F)c2)cc(-c2ncco2)c1.Cl.Cl', 'y');
